Tested on: NCI-H460 lung
Measured metric: GI50

CCOCCCn1c2c(c3c(O)cccc31)C(=O)c1ccccc1-2; 21600 nM
NC(=O)c1cc([N+](=O)[O-])c(Cl)c([N+](=O)[O-])c1Cl; 1740 nM
COc1ccc(-c2nc(-c3ccc(C)cc3)cn3ccnc23)cc1; 2530 nM
CC(C)(C)c1ccc(Oc2ccc(N)cn2)cc1; 72300 nM
COc1ccc(CN2c3ccccc3Sc3ccccc32)c(C(F)(F)F)c1; 456 nM

Kindly consider the entry below.
### Prompt API: value(readout= GI50, system= NCI-H460 lung, query= CC1=C(SCCC(=O)OC(C[Se]C2=C(C)C(=O)c3ccccc3C2=O)C(=O)NCCCCCC(=O)OCc2ccccc2)C(=O)c2ccccc2C1=O (stereo not drawn) )
### Response 1900 nM
